# Test system: LXFL-529L cells
# measurement.description: Cellular uptake by LXFL-529L cells
# Format: cell-based
# protocol.conditions: cellular organelles, concentration of incubation 10 μM, 2 hours
recorded.metric: distribution particular (%)

# structure.as.smiles, distribution particular [%]
rows = [
    ("Nc1ccc2c(c1)C(=C1Nc3ccccc3C1=NO)C(=O)N2", 90),
    ("CCc1ccc2c(c1)/C(=C1/Nc3ccccc3C1=O)C(=O)N2", 90),
    ("Cc1ccc2c(c1)C(=C1Nc3ccccc3C1=NO)C(=O)N2", 80),
    ("Nc1ccc2c(c1)C(=C1Nc3ccccc3C1=O)C(=O)N2", 85),
    ("CCc1ccc2c(c1)C(=C1Nc3ccccc3C1=NO)C(=O)N2", 82),
    ("O=C1Nc2ccccc2C1=C1Nc2ccccc2C1=NOCCO", 93),
]

###

# System: cells of the mammary carcinoma cell line MCF-7
# measurement.description: Tumor cell growth inhibition, SRB-assay, MCF-7
# Type: cell-based
# protocol.conditions: 50% growth inhibition, three days incubation in serum-containing medium
pIC50: −log10 of the molar value.
recorded.metric: pIC50

# compound, pIC50
records = [
    ("O=C(O)Cc1ccc2c(c1)C(=C1Nc3ccccc3C1=O)C(=O)N2 [Example 5, 5-(carboxymethyl)-indirubin]", 4.71),
    ("CNC(=O)Cc1ccc2c(c1)C(=C1Nc3ccccc3C1=O)C(=O)N2 [Example 9]", 4.77),
    ("CC(C)c1ccc2c(c1)C(=C1Nc3ccccc3C1=NO)C(=O)N2 [Example 27, 5-isopropyl-indirubin-3′-monooxime]", 5.30),
    ("CC(N)C(=O)Nc1ccc2c(c1)C(=C1Nc3ccccc3C1=O)C(=O)N2 (centres unmarked) [Example 19]", 5.30),
]

[P] CCc1ccc2c(c1)C(=C1Nc3ccccc3C1=NO)C(=O)N2 [Example 26, 5-ethyl-indirubin-3′-monooxime]
[Q] CN(C)C(=O)Cc1ccc2c(c1)C(=C1Nc3ccccc3C1=O)C(=O)N2 [Example 10]
Which entry has a larger number for pIC50, P or Q ? Response format: the label of the selected entry.
P
(P: 5.15, Q: 4.70)

[1] O=C1Nc2ccccc2C1=C1Nc2ccccc2C1=NOCCCCCCCCCCN(CCO)CCO [Example 62]
[2] CN(C)CCON=C1C(=C2C(=O)Nc3ccccc32)Nc2ccccc21 [Example 58]
Min pIC50? 1 | 2 Response format: the label of the selected entry.
1

###

# Tested on: cells of the mammary carcinoma cell line MCF-7
# measurement.description: Tumor cell growth inhibition, SRB-assay, MCF-7
# Assay type: cell-based
# protocol.conditions: 50% growth inhibition, three days incubation in serum-containing medium
recorded.metric: IC50 (µM)

# compound, result.units, test.value
measured = [
    ("CCCc1ccc2c(c1)C(=C1Nc3ccccc3C1=O)C(=O)N2", "µM", 6.5),
    ("CN(C)C(=O)CON=C1C(=C2C(=O)Nc3ccccc32)Nc2ccccc21", "µM", 9.2),
]

[a] Nc1ccc2c(c1)C(=C1Nc3ccccc3C1=NO)C(=O)N2
[b] O=C1Nc2ccccc2C1=C1Nc2ccccc2C1=NOCCN[C@H]1C(O)O[C@H](CO)[C@@H](O)[C@@H]1O (some centres unmarked)
[c] Cc1ccc2c(c1)C(=C1Nc3ccccc3C1=NOCCO)C(=O)N2
Ranking field: IC50; order: falling. Show the ranking through the labels, in the order asked for.
b, a, c
(b: 14 µM, a: 5 µM, c: 1.5 µM)

###

# Test system: LXFL-529L cells
# measurement.description: Cellular uptake by LXFL-529L cells
# Type: cell-based
# protocol.conditions: concentration of incubation 10 μM, 2 hours
recorded.metric: distribution cytosol (%)

Worked examples follow.
# structure.as.smiles, measured.target, result.units, test.value
data = [
    ("Cc1ccc2c(c1)C(=C1Nc3ccccc3C1=NO)C(=O)N2", "LXFL-529L cells", "%", 20),
    ("CCc1ccc2c(c1)/C(=C1/Nc3ccccc3C1=O)C(=O)N2", "LXFL-529L cells", "%", 10),
    ("Nc1ccc2c(c1)C(=C1Nc3ccccc3C1=O)C(=O)N2", "LXFL-529L cells", "%", 15),
    ("O=C1Nc2ccccc2C1=C1Nc2ccccc2C1=NOCCO", "LXFL-529L cells", "%", 7),
]

[P] CCc1ccc2c(c1)C(=C1Nc3ccccc3C1=NO)C(=O)N2
[Q] Nc1ccc2c(c1)C(=C1Nc3ccccc3C1=NO)C(=O)N2
Min distribution cytosol? P | Q Response format: the label of the selected entry.
Q
(Q: 10%, P: 18%)

###

# System: cells of the mammary carcinoma cell line MCF-7
# measurement.description: Tumor cell growth inhibition, SRB-assay, MCF-7
# Format: cell-based
# protocol.conditions: 50% growth inhibition, three days incubation in serum-containing medium
pIC50: −log10 of the molar value.
recorded.metric: pIC50

# structure.as.smiles, measured.target, pIC50
rows = [
    ("O=C(O)CCC(=O)Nc1ccc2c(c1)C(=C1Nc3ccccc3C1=O)C(=O)N2", "cells of the mammary carcinoma cell line MCF-7", 4.85),
]

[a] O=C1Nc2ccccc2C1=C1Nc2ccccc2C1=NOCCN1CCOCC1
[b] CC(C)c1ccc2c(c1)/C(=C1/Nc3ccccc3C1=O)C(=O)N2
[c] Nc1ccc2c(c1)C(=C1Nc3ccccc3C1=O)C(=O)N2
Order each entry by recorded pIC50, climbing from the minimum. Show the ranking through the labels, in the order asked for.
a, c, b
(a: 5.05, c: 5.30, b: 6.30)

###

# Tested on: LXFL-529L cells
# measurement.description: Cellular uptake by LXFL-529L cells
# Type: cell-based
# protocol.conditions: concentration of incubation 10 μM, 2 hours
recorded.metric: amount taken up (μg/mg protein)

Worked examples follow.
# compound, result.units, amount taken up
records = [
    ("Cc1ccc2c(c1)C(=C1Nc3ccccc3C1=NO)C(=O)N2 [Example 25, 5-methyl-indirubin-3′-monooxime]", "μg/mg protein", 0.12),
    ("O=C1Nc2ccccc2C1=C1Nc2ccccc2C1=NOCCO [Example 31]", "μg/mg protein", 0.27),
]

[I] CCc1ccc2c(c1)/C(=C1/Nc3ccccc3C1=O)C(=O)N2 [Example 2, 5-ethyl-indirubin]
[II] CCc1ccc2c(c1)C(=C1Nc3ccccc3C1=NO)C(=O)N2 [Example 26, 5-ethyl-indirubin-3′-monooxime]
Min amount taken up? I | II Response format: the label of the selected entry.
II

###

# Test system: LXFL-529L cells
# measurement.description: Cellular uptake by LXFL-529L cells
# Assay type: cell-based
# protocol.conditions: cellular organelles, concentration of incubation 20 μM, 2 hours
recorded.metric: distribution particular (%)

# molecule, test.value
measured = [
    ("CCc1ccc2c(c1)/C(=C1/Nc3ccccc3C1=O)C(=O)N2 [Example 2, 5-ethyl-indirubin]", 95),
    ("Nc1ccc2c(c1)C(=C1Nc3ccccc3C1=NO)C(=O)N2 [Example 28, 5-amino-indirubin-3′-monooxime]", 94),
    ("O=C1Nc2ccccc2C1=C1Nc2ccccc2C1=NOCCO [Example 31]", 93),
    ("CCc1ccc2c(c1)C(=C1Nc3ccccc3C1=NO)C(=O)N2 [Example 26, 5-ethyl-indirubin-3′-monooxime]", 89),
    ("Cc1ccc2c(c1)C(=C1Nc3ccccc3C1=NO)C(=O)N2 [Example 25, 5-methyl-indirubin-3′-monooxime]", 84),
    ("Nc1ccc2c(c1)C(=C1Nc3ccccc3C1=O)C(=O)N2 [Example 15, 5-amino-indirubin]", 94),
]

###

# System: cells of the mammary carcinoma cell line MCF-7
# measurement.description: Tumor cell growth inhibition, SRB-assay, MCF-7
# Type: cell-based
# protocol.conditions: 50% growth inhibition, three days incubation in serum-containing medium
recorded.metric: IC50 (µM)

[a] CN1CCN(CCON=C2C(=C3C(=O)Nc4ccccc43)Nc3ccccc32)CC1 [Example 65]
[b] O=C1Nc2ccc(NCCO)cc2C1=C1Nc2ccccc2C1=O [Example 21, 5-(2-hydroxy-ethyl)-amino-indirubin]
Which entry has a larger number for IC50, a or b ? Response format: the label of the selected entry.
a

###

# Tested on: LXFL-529L cells
# measurement.description: Cellular uptake by LXFL-529L cells
# Assay type: cell-based
# protocol.conditions: concentration of incubation 20 μM, 2 hours
recorded.metric: amount taken up (μg/mg protein)

Worked examples follow.
# structure.as.smiles, amount taken up [μg/mg protein]
records = [
    ("Nc1ccc2c(c1)C(=C1Nc3ccccc3C1=O)C(=O)N2", 0.29),
    ("Cc1ccc2c(c1)C(=C1Nc3ccccc3C1=NO)C(=O)N2", 0.15),
    ("Nc1ccc2c(c1)C(=C1Nc3ccccc3C1=NO)C(=O)N2", 0.23),
    ("O=C1Nc2ccccc2C1=C1Nc2ccccc2C1=NOCCO", 0.31),
]

[I] CCc1ccc2c(c1)/C(=C1/Nc3ccccc3C1=O)C(=O)N2
[II] CCc1ccc2c(c1)C(=C1Nc3ccccc3C1=NO)C(=O)N2
Which entry has a larger number for amount taken up, I or II ? Response format: the label of the selected entry.
I
